METHOD_SUMMARY: yeast transport mutant growth inhibition pilot in 384-well plates, post-Golgi transport modulator project (AID 636)
TEST_PARAMETERS: absorbance 615 nm, about 18 h, stronger effect = higher value
For each of the compounds below, state its inhibition.
Answer with a number only, understood to be in %.

Which inhibition value belongs to "CCc1c(C)c2c(C)nn(-c3ccccc3)c2[nH]c1=O" ? -0.65

Which inhibition value belongs to "COc1ccc(OC)c(C(=O)c2ccc(C(=O)O)cc2)c1" ? -3.73

Which inhibition value belongs to CCn1cc(C2=NOC(C(=O)Nc3c(C)nn(Cc4ccc(F)cc4)c3C)C2)c(C)n1 (stereo not drawn) ? -1.41

Which inhibition value belongs to "C=CCn1c(SCc2cccc(C#N)c2)nnc1-c1ccccc1O" ? -4.4

Which inhibition value belongs to "Cc1nn(C(=O)c2ccoc2C)c(N)c1-c1ccccc1" ? -6.27

Which inhibition value belongs to "C=CCc1ccccc1OCCCCN1CCCC1" ? -9.05

Which inhibition value belongs to "COc1cccc(NC(=O)c2nnn(Cc3ccc(Br)cc3F)c2N)c1" ? -3.33

Which inhibition value belongs to "O=C(NCc1ccco1)C1CCN(c2ccc(N3CCOCC3)nn2)CC1" ? -0.53

Which inhibition value belongs to "C=CCNC(=O)CSc1nc2sc(C)c(C)c2c(=O)[nH]1" ? -3.33

Which inhibition value belongs to "CCc1nc2sc(C)c(C)c2c(=O)n1CCO" ? -6.23

Which inhibition value belongs to "Cc1ccccc1-n1c(Cn2c(=O)sc3ccccc32)nnc1SCC(N)=O" ? -6.27

Which inhibition value belongs to "COc1ccc(-c2nc3c(n2O)CCC/C3=N\O)cc1" ? -1.43

Which inhibition value belongs to "CC(=O)OCCNc1cc(N2CCN(C)CC2)c2noc3c2c1C(=O)c1ccccc1-3" ? -1.54

====

METHOD_SUMMARY: MRP1 drug-resistance reversers in H69AR cells – cell-based, doxorubicin co-treatment, pilot screen (AID 601)
TEST_PARAMETERS: H69AR cells + 2 uM doxorubicin, CellTiter-Glo, 72 h; measured here: viability with 2 uM doxorubicin; at 10 µM; stronger effect = lower value
For each of the molecules below, state its viability.
Answer with a number only, understood to be in %.

Which viability value belongs to "CCCCN(CC)CCCNC(=O)c1cc2c(=O)n(C)c3ccccc3c2n1C" ? 70.2

Which viability value belongs to CC12CN3CCN(CC(C3)C1(O)CN1CCCCC1)C2 (configuration not stated) ? 89.2

Which viability value belongs to "O=P(O)(CCc1ccccc1)CN1CCCCC1" ? 92

Which viability value belongs to O=C1c2ccccc2C(Nc2ccc(F)c(Cl)c2)N1Cc1ccco1 (configuration not stated) ? 75

Which viability value belongs to "COc1ccc(C(=O)NCC(=O)NC2=NCCS2)cc1" ? 91

Which viability value belongs to "CC(C)CCSc1nc2c(c(=O)[nH]c(=O)n2C)n1CCCc1ccccc1" ? 58.9

Which viability value belongs to Cc1ccc(S(=O)(=O)c2nc(-c3ccco3)oc2SCC(=O)NCC2CCCO2)cc1 (configuration not stated) ? 86.4

Which viability value belongs to "Cc1cc(NC(=O)CS(=O)(=O)c2cn(Cc3ccccc3Cl)c3ccccc23)no1" ? 81

Which viability value belongs to "O=C(O)c1ccc2c(c1)C(=O)N(c1ccc(Cl)cn1)C2=O" ? 88.2

Which viability value belongs to "Cn1cc(Cl)c(C(=O)NC2CCCC2)n1" ? 91.3

Which viability value belongs to CCOC(=O)N1CCN(C(c2ccc(Cl)cc2)c2sc3nc(C)nn3c2O)CC1 (configuration not stated) ? 103

Which viability value belongs to "Cc1c(C(=O)NC2CC2)oc2ccc(S(=O)(=O)N3CCCCCC3)cc12" ? 97.1

====

METHOD_SUMMARY: MRP1 drug-resistance reversers in H69AR cells – cell-based, doxorubicin co-treatment, pilot screen (AID 601)
TEST_PARAMETERS: H69AR cells + 2 uM doxorubicin, CellTiter-Glo, 72 h; at 10 µM; stronger effect = higher value
For each of the compounds below, state its differential viability (reversal).
Answer with a number only, understood to be in %.

Which differential viability (reversal) value belongs to "CCN(C1CCCCC1)S(=O)(=O)c1ccc(S(=O)(=O)N2CCN(CCC#N)CC2)cc1" ? -10.4

Which differential viability (reversal) value belongs to "CCOC(=O)c1ccccc1NC(=O)CSc1nccn1C" ? 15.5

Which differential viability (reversal) value belongs to "c1ccn2c(SCc3ccc4c(c3)OCCO4)nnc2c1" ? 0.37

Which differential viability (reversal) value belongs to COC(=O)C(C#N)C(=C1C(=O)CC(C)(C)CC1=O)c1ccc(O)cc1 (stereo not given) ? -3.63

Which differential viability (reversal) value belongs to "Cc1c(C#N)c2ccccc2n1CC(=O)N1CCc2ccccc2C1" ? 2.7

Which differential viability (reversal) value belongs to "COc1cccc(-c2nnc(NC(=O)c3ccccc3Br)o2)c1" ? -22.2

Which differential viability (reversal) value belongs to "COc1ccc(-n2c(Cc3cccn3C)nnc2SCC(=O)Nc2cccc(Cl)c2)cc1" ? -2.28

Which differential viability (reversal) value belongs to "CCCCNC(=O)Nc1ccnn1C1CCCCC1" ? 13

Which differential viability (reversal) value belongs to "O=C1c2ccccc2C(=O)N1C/C=C/CN1C(=O)c2ccccc2C1=O" ? -9.46

Which differential viability (reversal) value belongs to "c1ccc2c(c1)nc(NCCN1CCOCC1)c1nncn12" ? 8.78

Which differential viability (reversal) value belongs to "CCOC(=O)c1csc(NC(=O)C2CCCCC2)n1" ? 26.3

Which differential viability (reversal) value belongs to COc1cc(C2c3c(oc4ccccc4c3=O)C(=O)N2c2ccc(C)cn2)ccc1O (stereo not given) ? 1.23

Which differential viability (reversal) value belongs to COc1ccccc1NC(=O)C1(C)Cc2ccccc2C(=O)O1 (stereo not given) ? 2.89

Which differential viability (reversal) value belongs to "COc1ccc(NC(=O)CSc2nc3c(c(=O)n2-c2ccccc2OC)SCC3)cc1" ? -5.71

Which differential viability (reversal) value belongs to "CCOC(=O)c1cc(NC(=O)SCC(=O)O)c(C)nc1C" ? 2.72

Which differential viability (reversal) value belongs to "Cc1cc(=O)oc2c1c(C)nn2-c1ccc(C(=O)OC(C)C)cc1" ? 2.41

Which differential viability (reversal) value belongs to "COc1cc2c(cc1OC)-c1nnc(C)n1C1(CCCC1)C2" ? 0.73

Which differential viability (reversal) value belongs to CCN(CC)CCCN1C(=O)C(O)=C(C(=O)c2ccco2)C1c1ccc(C)o1 (stereo not given) ? -0.59

Which differential viability (reversal) value belongs to "N#Cc1nc(COc2ccccc2Cl)oc1N1CCCCCC1" ? -3.75

Which differential viability (reversal) value belongs to CSCCC(N=CC1=C(O)CC(C)(C)CC1=O)C(=O)O (stereo not given) ? -2.07

Which differential viability (reversal) value belongs to "COC(=O)c1sc(NC(=O)COc2ccccc2OC)nc1C" ? 11.6

Which differential viability (reversal) value belongs to "COc1ccc(Cl)cc1S(=O)(=O)N1CCN(c2ccc(F)cc2)CC1" ? -11.6

Which differential viability (reversal) value belongs to "Cc1ccc(Cn2c(CN3CCOCC3)nc3c2c(=O)n(C)c(=O)n3C)cc1" ? 2.54

Which differential viability (reversal) value belongs to "Cc1ccccc1-c1nc(CN2CCC(C(=O)N3CCC(C(N)=O)CC3)CC2)c(C)o1" ? 4.8

Which differential viability (reversal) value belongs to "COc1cccc(-c2nc(CS(=O)(=O)CC(=O)N3CCc4ccccc4C3)c(C)o2)c1" ? 6

Which differential viability (reversal) value belongs to Cn1c(=O)oc2cc(S(=O)(=O)N3CCCC(C(=O)NCC4COc5ccccc5O4)C3)ccc21 (stereo not given) ? 3.15

Which differential viability (reversal) value belongs to "COc1c(C(=O)Nc2c(C)n(C)n(-c3ccccc3)c2=O)ccc2ccccc12" ? 25.5

Which differential viability (reversal) value belongs to CC(C)c1ncc(C(O)c2cccc3ccccc23)n1C (stereo not given) ? 4.07

Which differential viability (reversal) value belongs to "COCCn1c(=O)[nH]c2cc(C(=O)NCCCN3CCN(c4ccc(F)cc4)CC3)ccc2c1=O" ? 3.64

Which differential viability (reversal) value belongs to "O=C(Nc1ccc2c(c1)OCCO2)NC1CCCCC1" ? 3.18

Which differential viability (reversal) value belongs to "O=C1C/C(=C/NCc2ccccc2)C(=O)N1" ? -4.96

Which differential viability (reversal) value belongs to "COc1ccc(CC(=O)NCc2nnc(SCC(=O)Nc3nccs3)n2-c2ccccc2)cc1" ? 2.73

Which differential viability (reversal) value belongs to "COc1ccc(C(=O)CN2C3=NCCCN3c3ccccc32)cc1OC" ? 5.29

Which differential viability (reversal) value belongs to "O=C(Cn1nc(Cc2ccncc2)c2ccccc2c1=O)N1CCc2ccccc2C1" ? 5.38

Which differential viability (reversal) value belongs to "CC(C)(C)SCCNC(=O)COc1ccccc1" ? 11.8
